From: patent US20030039580A1

As shown below, each of these compounds has a reported DAY 14 Bacteria (cfu/ml) value.
Tested on: mixed bacteria, comprising E. coli (ATCC 8739), P. aeruginosa (ATCC 9027), and S. aureus (ATCC 6538)
Assay: Inhibition of mixed bacteria by propynyl compound solutions in protein shampoo (Example 2)
Assay type: cell-based
Settings: Table 3; day 14; 500 ppm in protein shampoo (GPL 1000 ppm); solvent butoxydiglycol (A, E) or butylene glycol (B, C, D)
Experimental: Each of the samples A to E is a protein shampoo comprising a propynyl compound. The samples were tested for antibacterial and antifungal properties by testing for inhibition of a mixed bacteria, comprising E. coli (ATCC 8739), P. aeruginosa (ATCC 9027), and S. aureus (ATCC 6538), and inhibition of a mixed fungi, comprising A. niger (ATCC 16404) and C. albicans (ATCC 10231). The samples “GPL” and “NP” are controls. “GPL” is 0. […]
QUANTITY: DAY 14 Bacteria (cfu/ml)

compound="OC(C#CI)c1cccs1 (stereo not shown)" quantity="DAY 14 Bacteria (cfu/ml)" recorded_value=">3.0 × 10^3 cfu/ml"
compound=O=c1c(Cl)cn(CC#CI)c(=O)n1CC#CI quantity="DAY 14 Bacteria (cfu/ml)" recorded_value="<10 cfu/ml"
compound="Cc1ccc(C(Cn2ccnc2)OCC#CI)cc1 (stereo not shown)" quantity="DAY 14 Bacteria (cfu/ml)" recorded_value="<10 cfu/ml"
compound=O=C(C#CI)c1ccc(C(F)(F)F)cc1 quantity="DAY 14 Bacteria (cfu/ml)" recorded_value=">3.0 × 10^3 cfu/ml"
